Target under test: tryptase
Experimental protocol: In vitro tryptase inhibition assay (hydrolysis of tosyl-Gly-Pro-Lys-p-nitroanilide)
Test settings: tosyl-Gly-Pro-Lys-p-nitroanilide 0.5 mM, pH 8.2, 1 h pre-incubation, room temperature
So I've got a bunch of compounds here, and I need their pKi values.
pKi field: float, defined as -log10 of concentration (mol/L).

Exercise: Tell me the measured pKi of N=C(N)Nc1ccc(CNC(=O)N2CCN(C(=O)OCC34CC5CC(C3)CC(COC(=O)N3CCN(C(=O)NCc6ccc(NC(=N)N)cc6)CC3)(C5)C4)CC2)cc1 [Compound 31] , please.
Key: 7.58

Exercise: What do you get for N=C(N)Nc1ccc(CNC(=O)N2CCN(C(=O)O[C@H]3CCC[C@@H](OC(=O)N4CCN(C(=O)NCCCCCCN)CC4)CCC3)CC2)cc1 [Compound 54] ?
Key: 7.70

Exercise: What do you get for NCC1CCN(C(=O)NCC2CCN(C(=O)O[C@H]3CCC[C@@H](OC(=O)N4CCC(CNC(=O)N5CCC(CN)CC5)CC4)CCC3)CC2)CC1 [Compound 26] ?
Key: 6.48

###

Target under test: tryptase
Experimental protocol: In vitro tryptase inhibition assay (hydrolysis of tosyl-Gly-Pro-Lys-p-nitroanilide)
Test settings: tosyl-Gly-Pro-Lys-p-nitroanilide 0.5 mM, pH 8.2, 1 h pre-incubation, room temperature
Measurement name: pKi
pKi field: float, defined as -log10 of concentration (mol/L).

Exercise: Tell me the measured pKi of N=C(N)C1CCN(C(=O)NCC2CCN(C(=O)O[C@H]3CCC[C@@H](OC(=O)N4CCC(CNC(=O)N5CCC(C(=N)N)CC5)CC4)CCC3)CC2)CC1 , please.
Key: 6.94

Exercise: What do you get for NCCc1ccc(C(=O)N2CCN(C(=O)O[C@H]3CCC[C@@H](OC(=O)N4CCN(C(=O)c5ccc(CCN)cc5)CC4)CCC3)CC2)cc1 ?
Key: 8.31

Exercise: What do you get for NCCc1ccc(CNC(=O)N2CCN(C(=O)O[C@H]3CCC[C@@H](OC(=O)N4CCN(C(=O)NCc5ccc(CCN)cc5)CC4)CCC3)CC2)cc1 ?
Key: 5.89

Exercise: What do you get for N=C(N)Nc1ccc(CC(=O)N2CCN(C(=O)O[C@H]3CCC[C@@H](OC(=O)N4CCN(C(=O)Cc5ccc(NC(=N)N)cc5)CC4)CCC3)CC2)cc1 ?
Key: 9.33

Exercise: What do you get for NC[C@H]1CC[C@H](CNC(=O)N2CCN(C(=O)O[C@H]3CCC[C@@H](OC(=O)N4CCN(C(=O)NC[C@H]5CC[C@H](CN)CC5)CC4)CCC3)CC2)CC1 ?
Key: 7.80

Exercise: What do you get for N=C(N)c1ccc(CCC(=O)N2CCN(C(=O)O[C@H]3CCC[C@@H](OC(=O)N4CCN(C(=O)CCc5ccc(C(=N)N)cc5)CC4)CCC3)CC2)cc1 ?
Key: 9.43
